target: acetylcholine receptor; experiment: SPR, peptide at 10 uM over immobilized acetylcholine receptor
Catalogue of Binding affinity (RU) values
Answer with a number only, understood to be in RU.

Record excerpt, results attached:
Q: // Binding affinity (RU) lookup, key: KRLLRK [6mer-2-70]
Ans: 126

Q: Given RLYQRK [6mer-2-94] , state its recorded Binding affinity (RU).
Ans: 126

Q: Return reported Binding affinity (RU); argument: RWQTRR [6mer-2-93]
Ans: 133

Q: Given the entry RGFTRR [6mer-2-105] , report its measured Binding affinity (RU).
Ans: 151

Q: Bench note: what Binding affinity (RU) did RRVSRR [6mer-2-81] show?
Ans: 121

Next:
Q: For the binder shown here, RSISKK [6mer-2-119] , give the reported Binding affinity (RU).
Ans: 139

Q: Please give the measured Binding affinity (RU) for this binder: RRQSRK [6mer-2-76]
Ans: 142
